# Test system: CCRF-CEM leukemia
# experiment summary: NCI-60 one-dose screen, 48 h
# condition: 10 µM unless noted
The panel holds about 83,000 compounds, 20% with a hit somewhere; the sample as a whole holds those more often. The source made the active and inactive calls. How the source made its calls: active means growth percent below 10; inactive means the rest.
Mark one answer only. Choices: t for active, f for inactive

Dear all, I need the recorded test outcome for CC1=NN(c2nc(-c3ccc(Cl)cc3)c(C#N)c(N3CCOCC3)n2)C(=O)C1 , thank you.
f

---

# Tested on: NCI-H460 lung
# experiment summary: NCI-60 one-dose screen, 48 h
# condition: 10 µM unless noted
# Description: Growth inhibition of the NCI-H460 human Non-Small Cell Lung tumor cell line is measured as a screen for anti-cancer activity. Cells are grown in 96 well plates and exposed to the test compound for 48 hours. Compounds are tested at a single concentration, which is 10^-5 M for most compounds. The reported endpoint is percent growth (GI% or GIPRCNT), where numbers from 0 - 100% represent growth inhibition, and numbers from -100% - 0 represent cell death. […]
This is part of a sample that, as a whole, favours compounds with a hit. Of some 83,000 tested, about 20% had one in any assay. Active and inactive are the calls of the source. The calls were made as follows: active = growth percent below 10; inactive = the rest.
Mark one answer only. Choices: YES (active), NO (inactive)

Examples with answers:
INSERT INTO assay_data (compound, category) VALUES
  ('COc1ccc(S(=O)(=O)N2CCCCCC2)cc1NC(=O)c1[nH]c(C)c2c1CCCCC2=O', 'NO'),
  ('CCOc1ccc(-n2nc(C(=O)Nc3cc(OC)c(OC)c(OC)c3)nc2-c2cc(OC)c(OC)c(OC)c2)cc1', 'NO'),
  ('Oc1ccc(N=Cc2ccccc2O)cc1', 'NO'),
  ('Cc1ccccc1COc1ccc(-c2ccnn2-c2ccc(Cl)cc2)cc1', 'NO'),
  ('O=C(COc1cccc(/C=C2\COc3ccc(Cl)cc3C2=O)c1)c1ccc(Cl)cc1', 'NO'),
  ('COc1ccc(C2CC(c3ccc4ccccc4c3)=NN2/C=C2\SC(=S)N(NC(=O)Cc3ccccc3Nc3c(Cl)cccc3Cl)C2=O)cc1 (stereo not given)', 'YES'),
  ('Cc1cc(C)nc(SC2=C(Nc3ccc(C)c(Cl)c3)C(=O)N(Cc3ccccc3)C2=O)n1', 'NO'),
  ('COc1cccc(NC(=O)c2sc3nc(C)c(C(C)=O)cc3c2N)c1', 'NO');

Dear all, I need the recorded test outcome for C(=N/Nc1ncc(-c2cc3cc(-c4ccccc4)ccc3o2)s1)/c1cccs1 , thank you.
YES

Dear all, I need the recorded test outcome for COc1cc2nc(N3CCCC3)nc(Nc3ccccc3)c2cc1OC , thank you.
YES

Dear all, I need the recorded test outcome for O=C1NC(=S)N[C@H]1CC(=O)n1cnc2ccccc21 , thank you.
NO

Dear all, I need the recorded test outcome for Cc1nc(Nc2ccc(F)c(Cl)c2)sc1C(=O)O , thank you.
NO

Dear all, I need the recorded test outcome for CCCn1c(=O)[nH]c(N)c([C@H]2c3ccccc3Oc3[nH]c(=O)n(CCC)c(=O)c32)c1=O , thank you.
NO

Dear all, I need the recorded test outcome for COc1cc(/C=C/c2cc(/C=C/c3ccc(O)c(OC)c3)n(-c3c(Cl)cccc3Cl)c(=O)n2)ccc1O , thank you.
NO

Dear all, I need the recorded test outcome for CC1(C)CC[C@]2(C(=O)Nc3ccccn3)CC[C@]3(C)C(=CC[C@@H]4[C@@]5(C)C/C(=C/c6cccnc6)C(=O)C(C)(C)[C@@H]5CC[C@]43C)[C@H]2C1 , thank you.
NO
